Assay: folding stability dG unfold (combined trypsin and chymotrypsin); higher = more stable
OBSERVABLE: folding stability dG unfold (kcal/mol)
Reply numerically in kcal/mol, unit not repeated.

Examples with their reported folding stability dG unfold follow.
1) SAGGKSIHIADATLEDLVDLIANLPEPVVIHVERPVTFPVLLLENGVVAAVRTETAPATLTLTIPPELSAGG [r13_632_TrMRF]: 0.389
2) SAGGSAGGSAGGAPEKEVTVRVRITVFRDGKPVEEIELEPGQTLTFPPGARVVIEVELLPSAGGSAGGSAGG [r7_141_TrROS_Hall]: 3.39
3) SAGPWNIMVYDNGEPLEMIEIKGDEITIPLPPGPVRIAIFNPDDNGFVEEEVTPEDGTIEMKIPKGAKISAG [r5_469_TrROS]: -0.113
4) SAGGSAGGMKTTTYTFPGTLEEAKALAEELVAALPPHAKEVTVEVTPDPATGTVTVTITVKELASAGGSAGG [r6_164_JUSTAS]: 3.46
5) SAGMEITTVTLPDGTKLITITLPVPGGPSITADVPYDPATGKVTLLKITGEDPALEALAKEAVEKLKKESAG [r5_266_JUSTAS]: 1.09

Next:
According to the records, this sequence SAGGSAGGSAGPKPPPVYRLRIVNPDGEVYEFEVPADMSPEEIAKRLGLPPGARVELEKVSAGGSAGGSAGG [r11_340_TrROS_Hall] displays folding stability dG unfold of 3.28
